# assayed_system: UniProtKB Q03431
# Sequence (Q03431 27-593): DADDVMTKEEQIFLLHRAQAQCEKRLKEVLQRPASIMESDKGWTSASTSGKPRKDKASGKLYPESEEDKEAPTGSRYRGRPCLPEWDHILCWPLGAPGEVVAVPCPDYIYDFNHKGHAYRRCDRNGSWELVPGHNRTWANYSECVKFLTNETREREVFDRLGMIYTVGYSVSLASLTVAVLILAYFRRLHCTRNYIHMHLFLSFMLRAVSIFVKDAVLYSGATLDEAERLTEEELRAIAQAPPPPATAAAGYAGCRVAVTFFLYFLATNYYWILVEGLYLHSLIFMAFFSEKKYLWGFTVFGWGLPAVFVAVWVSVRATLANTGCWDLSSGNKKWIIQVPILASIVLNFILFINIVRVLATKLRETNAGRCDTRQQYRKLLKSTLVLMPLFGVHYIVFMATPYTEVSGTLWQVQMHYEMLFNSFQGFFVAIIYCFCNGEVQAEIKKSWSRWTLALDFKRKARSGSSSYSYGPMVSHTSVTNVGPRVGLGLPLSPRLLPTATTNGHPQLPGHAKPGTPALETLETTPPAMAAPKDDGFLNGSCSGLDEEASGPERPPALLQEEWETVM
# test_name: In vitro cAMP signal activity in HKRK-B7 cells (LLC-PK1 cells overexpressing the human PTH1 receptor)
# Assay type: cell-based
# details: HKRK-B7 cells; compound at 1×10^−3 M; cAMP produced as percentage of that produced by hPTH(1-34) at 100 nM
result_type: cAMP production activity (%)
Provide the reading as a plain figure in %.

For orientation, consider the following solved cases.
query_smiles	recorded_measurement
Cc1cc2[nH]ccc2cc1/C=C/S(=O)(=O)N1CCC2(CC1)N=C(C1CCCCC1)NC2=O	48
CCOC(=O)CCCCCCCCCCCC1=NC2(CCN(S(=O)(=O)/C=C/c3c(C)cc(N(C)C(N)=O)cc3C)CC2)C(=O)N1	80
Cc1cc(N(C)C(N)=O)cc(C)c1CC[S@TB4](=O)(=O)N1CCC2(CC1)N=C(CCCCCCCCCCC(F)F)NC2=O	77

// next entry
### Prompt Assign cAMP production activity (%) to the following record: O=C1NC(C2CCCCC2)=NC12CCN(S(=O)(=O)/C=C/c1ccccc1C(F)(F)F)CC2
### Response 49

Hello, the source for this data is patent US9169254B2, in case you need it.
